The measurements presented in this section are drawn from patent US20230025732A1.

- targetUnderTest: T1, human CD39 expressed at the cell surface (human, UniProt P49961 1-510)
- T1 construct: On CHO transfectants, Hek-293T transfectants, Ramos and Mino tumor cells; also called huCD39; CHO-huCD39
- T1 sequence: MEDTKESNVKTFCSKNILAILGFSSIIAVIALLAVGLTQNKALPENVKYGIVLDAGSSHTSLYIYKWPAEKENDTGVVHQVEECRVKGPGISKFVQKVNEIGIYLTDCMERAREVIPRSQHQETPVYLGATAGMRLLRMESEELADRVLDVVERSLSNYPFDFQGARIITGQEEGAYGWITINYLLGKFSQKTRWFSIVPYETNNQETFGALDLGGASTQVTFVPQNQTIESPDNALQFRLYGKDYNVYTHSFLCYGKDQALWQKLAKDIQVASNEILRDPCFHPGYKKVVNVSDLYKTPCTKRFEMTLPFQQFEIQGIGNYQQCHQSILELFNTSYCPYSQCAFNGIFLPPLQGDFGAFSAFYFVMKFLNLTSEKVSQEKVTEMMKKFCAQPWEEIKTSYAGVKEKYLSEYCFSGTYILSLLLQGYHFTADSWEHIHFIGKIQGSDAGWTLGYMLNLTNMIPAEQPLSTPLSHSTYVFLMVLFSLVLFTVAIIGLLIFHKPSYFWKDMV
- assayNotes: flow cytometry titration on Ramos lymphoma cells (Mean of Fluorescence), panel L1*
readoutKind: binding result

- binder: "mAb15 H3L1* (antibody, human IgG1, V domains shown) VH: QVQLVQSGAEVKKPGASVKVSCKASGYTFTDYNMHWVRQAPGQRLEWIGYIVPLNGGSTFNQKFKGRATITVDTSASTAYMELSSLRSEDTAVYYCARGGTRFAYWGQGTLVTVSS VL: DIVMTQSPDSLAVSLGERATINCKASESVDNFGVSFMYWFQQKPGQPPKLLIYGASNQGSGVPDRFSGSGSGTDFTLTISSLQAEDVAVYYCQQTKEVPYTFGGGTKVEIK"
  result: "binds"
